# ASSAY_PROCEDURE: Half life in mouse at 10 mg/kg, sc
# Type: ADME, organism-based
# SETTINGS: in vivo
READOUT_LABEL: half-life (h)
Give bare numbers, in h.

Request: Request the reported half-life associated with "CC(C)(N)[C@H](N[C@H]1CCc2cc(C#Cc3ccc(Cn4ccnc4CO)cc3)ccc21)C(=O)NO"
Result: 1.2

====

# ASSAY_PROCEDURE: Fraction unbound in rat plasma at 10 uM by equilibrium dialysis method
# Format: ADME, cell-free
READOUT_LABEL: fraction unbound at 10 µM
One number for each entry.

Request: Name the reported fraction unbound at 10 µM value associated with the molecule "CC(C)(N)[C@H](N[C@H]1CCc2cc(C#Cc3ccc(Cn4ccnc4CO)cc3)ccc21)C(=O)NO"
Result: 0.05

====

# ASSAY_PROCEDURE: Fraction unbound in human plasma at 10 uM by equilibrium dialysis method
# Assay type: ADME, cell-free
READOUT_LABEL: fraction unbound at 10 µM
Numbers only.

Request: Requested read-out: fraction unbound at 10 µM. Entry: "CC(C)(N)[C@H](N[C@H]1CCc2cc(C#Cc3ccc(Cn4ccnc4CO)cc3)ccc21)C(=O)NO"
Result: 0.06

====

# ASSAY_PROCEDURE: Aqueous solubility of the compound in pH 7.4 buffer
# Format: physicochemical
READOUT_LABEL: solubility (µg/mL)
One number for each entry, in µg/mL.

Request: Given the compound "CC(C)(N)[C@H](N[C@H]1CCc2cc(C#Cc3ccc(Cn4ccnc4CO)cc3)ccc21)C(=O)NO" , what is its reported solubility?
Result: 850

====

# ASSAY_PROCEDURE: Volume of distribution at steady state in mouse at 2 mg/kg, iv
# Assay type: ADME, organism-based
# SETTINGS: in vivo, read-out: Vdss
READOUT_LABEL: Vd
Write the numeric value and append its unit.

Request: Given the entry "CC(C)(N)[C@H](N[C@H]1CCc2cc(C#Cc3ccc(Cn4ccnc4CO)cc3)ccc21)C(=O)NO" , report its measured Vd.
Result: 0.4 L/kg

====

# Tested on: Escherichia coli
# ASSAY_PROCEDURE: Antibacterial activity against Escherichia coli isolate 35 ATCC 25922
# Type: functional
Exercise: for every item that follows, state its recorded MIC.

Request: Fill blank: measured MIC of the compound CCCCC(N[C@H](C(=O)NO)[C@@H](C)O)c1ccc(C#Cc2ccccc2)cc1 (stereo not given in full) is ____.
Result: 64 µg/mL

Request: Can you handle C[C@@H](O)[C@H](NC1CCCc2cc(C#Cc3ccc(CN4CCOCC4)cc3)ccc21)C(=O)NO (stereo not given in full) next?
Result: 0.25 µg/mL

Request: Queued: C[C@@H](O)[C@H](NC1CCOc2cc(C#Cc3ccccc3)ccc21)C(=O)NO (stereo not given in full)
Result: 2 µg/mL

Request: CCC(N[C@H](C(=O)NO)[C@@H](C)O)c1ccc(C#Cc2ccccc2)cc1 (stereo not given in full) ?
Result: 4 µg/mL

Continue with the next compound.
Request: Any idea what MIC was measured for "C[C@@H](O)[C@H](N[C@H]1CCc2cc(C#Cc3ccc(CN4CCN(C)CC4)cc3)ccc21)C(=O)NO" ?
Result: 0.25 µg/mL

====

# SYSTEM_TESTED: UDP-3-O-acyl-N-acetylglucosamine deacetylase (Escherichia coli K-12, UniProt P0A725)
# Sequence (P0A725 whole entry): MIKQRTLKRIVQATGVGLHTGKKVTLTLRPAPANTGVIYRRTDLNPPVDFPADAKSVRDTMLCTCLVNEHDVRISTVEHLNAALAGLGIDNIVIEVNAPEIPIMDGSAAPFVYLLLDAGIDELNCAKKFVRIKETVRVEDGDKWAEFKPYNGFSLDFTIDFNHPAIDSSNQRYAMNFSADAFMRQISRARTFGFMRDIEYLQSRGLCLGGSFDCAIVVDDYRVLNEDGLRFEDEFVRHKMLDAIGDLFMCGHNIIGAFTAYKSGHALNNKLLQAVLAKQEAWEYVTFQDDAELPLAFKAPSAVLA
# ASSAY_PROCEDURE: Inhibition of LpxC in Escherichia coli isolate 35 ATCC 25922
pIC50: −log10 of the molar value.
Hi, to clarify the labels: t covers pIC50 from 8 upward, f covers anything below 8.

# count of solved cases: 3
Request: Confirm if pIC50 reported for the compound C[C@@H](O)[C@H](NC1CCCCc2cc(C#Cc3ccccc3)ccc21)C(=O)NO (some centres undefined) is 8 or above.
Result: f

Request: Now try "C[C@@H](O)[C@H](N[C@@H]1CCc2cc(C#Cc3ccc(CN4CCOCC4)cc3)ccc21)C(=O)NO" .
Result: t

Request: CCCCC(N[C@H](C(=O)NO)[C@@H](C)O)c1ccc(C#Cc2ccccc2)cc1 (some centres undefined) , same question.
Result: f

Next:
Request: Reported pIC50 reaches at least 8 for CCC(N[C@H](C(=O)NO)[C@@H](C)O)c1ccc(C#Cc2ccccc2)cc1 (some centres undefined) ?
Result: f

Request: And C[C@@H](O)[C@H](NC1CN(C)Cc2cc(C#Cc3ccccc3)ccc21)C(=O)NO (some centres undefined) ?
Result: f

Request: # iterate: C[C@@H](O)[C@H](NC1COCc2cc(C#Cc3ccccc3)ccc21)C(=O)NO (some centres undefined)
Result: t

Request: // next record C[C@@H](O)[C@H](NC1CCCc2cc(C#Cc3ccccc3)ccc21)C(=O)NO (some centres undefined)
Result: t

Request: Same for CCCC(N[C@H](C(=O)NO)[C@@H](C)O)c1ccc(C#Cc2ccccc2)cc1 (some centres undefined)
Result: f

====

# ASSAY_PROCEDURE: Half life in mouse at 2 mg/kg, iv
# Type: ADME, organism-based
# SETTINGS: in vivo
READOUT_LABEL: half-life

Request: May I ask what half-life has been recorded for "CC(C)(N)[C@H](N[C@H]1CCc2cc(C#Cc3ccc(Cn4ccnc4CO)cc3)ccc21)C(=O)NO" ?
Result: 1.7 h

====

# ASSAY_PROCEDURE: Inhibition of LpxC in Acinetobacter baumannii focus ID 961025
Just a reminder that ties go to Not met: only IC50 strictly below 100 nM counts as Met.

Before answering, review these 4 worked examples.
Request: Determine whether this molecule shows IC50 lower than 100 nM (ties excluded): CC(N[C@H](C(=O)NO)[C@@H](C)O)c1ccc(C#Cc2ccccc2)cc1 (stereo not given in full)
Result: Not met

Request: Query CCC(N[C@H](C(=O)NO)[C@@H](C)O)c1ccc(C#Cc2ccccc2)cc1 (stereo not given in full) next
Result: Not met

Request: // query: C[C@@H](O)[C@H](NC1CCOc2cc(C#Cc3ccccc3)ccc21)C(=O)NO (stereo not given in full)
Result: Met

Request: Entry "C[C@@H](O)[C@H](N[C@H]1CCc2cc(C#Cc3ccc(CN4CCOCC4)cc3)ccc21)C(=O)NO" please
Result: Met

In the following, a different molecule is considered.
Request: Criterion: IC50 strictly below 100 nM. Is it met by C[C@@H](O)[C@H](NC1CCN(C)c2cc(C#Cc3ccccc3)ccc21)C(=O)NO (stereo not given in full) ?
Result: Not met

====

Field: log10 of MIC. Provide a value for each of the molecules that follow.
# Tested on: Escherichia coli
# ASSAY_PROCEDURE: Antibacterial activity against Escherichia coli isolate 35 ATCC 25922
# Type: functional
Units before log transform: µg/mL; reported quantity: MIC; transform: log10.

Known results for molecules:
Request: Request the reported log10 of MIC associated with C[C@@H](O)[C@H](NC1CCc2cc(C#Cc3ccccc3)ccc21)C(=O)NO (stereo not given in full)
Result: -0.30

Request: Same question for CCCC(N[C@H](C(=O)NO)[C@@H](C)O)c1ccc(C#Cc2ccccc2)cc1 (stereo not given in full) please.
Result: 0.30

Request: Let us now turn to "C[C@@H](O)[C@H](N[C@@H]1CCc2cc(C#Cc3ccc(CN4CCOCC4)cc3)ccc21)C(=O)NO"
Result: -0.30

Request: And the next one, CC(C)(N)[C@H](NC1COCc2cc(C#Cc3ccc(CN4CCOCC4)cc3)ccc21)C(=O)NO (stereo not given in full) ?
Result: -0.30

Request: Next molecule up: C[C@@H](O)[C@H](NC1COCc2cc(C#Cc3ccccc3)ccc21)C(=O)NO (stereo not given in full)
Result: -0.60

Respectfully, I request log10 of MIC for each entry included below.
1. CC(C)(O)[C@H](N[C@H]1CCc2cc(C#Cc3ccc(CN4CCN(CCO)CC4)cc3)ccc21)C(=O)NO
2. C[C@@H](O)[C@H](N[C@H]1CCc2cc(C#Cc3ccc(Cn4ccnc4CO)cc3)ccc21)C(=O)NO
3. C[C@@H](O)[C@H](N[C@H]1CCc2cc(C#Cc3ccc(CN4CCCCC4)cc3)ccc21)C(=O)NO
4. CC(C)(N)[C@H](N[C@H]1CCc2cc(C#Cc3ccc(CN4CCOCC4)cc3)ccc21)C(=O)NO

Result:
1: 0.60; 2: 0.00; 3: -0.30; 4: -0.30
